target: Estrogen receptor beta (Homo sapiens) (UniProt Q92731)
Sequence (Q92731 whole entry, looked up): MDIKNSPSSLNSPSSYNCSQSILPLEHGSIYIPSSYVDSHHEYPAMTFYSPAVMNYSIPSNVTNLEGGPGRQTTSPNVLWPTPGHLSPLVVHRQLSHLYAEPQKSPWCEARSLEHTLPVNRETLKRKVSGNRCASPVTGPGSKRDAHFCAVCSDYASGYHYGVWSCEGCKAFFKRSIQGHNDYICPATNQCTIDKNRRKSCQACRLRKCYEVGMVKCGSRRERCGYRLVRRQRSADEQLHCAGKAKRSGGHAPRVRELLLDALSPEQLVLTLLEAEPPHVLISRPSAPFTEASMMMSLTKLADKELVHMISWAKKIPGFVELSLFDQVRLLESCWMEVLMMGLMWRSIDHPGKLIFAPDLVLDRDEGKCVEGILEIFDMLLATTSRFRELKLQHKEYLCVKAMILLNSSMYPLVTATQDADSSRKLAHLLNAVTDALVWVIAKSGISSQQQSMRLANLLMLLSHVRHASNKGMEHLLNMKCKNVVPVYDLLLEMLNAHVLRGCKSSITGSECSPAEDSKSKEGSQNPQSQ
assayRemarks: qHTS assay to identify small molecule antagonists of the estrogen receptor beta (ER-beta) signaling pathway (AID 1259378); note: % is set by controls: 0 for no effect and ±100 for the full control effect
testParameters: ER-beta-UAS-bla HEK293T, beta-lactamase FRET ratio, 16 h; series mostly up to 92.4 µM
Results filed as inconclusive are left out. The source made the active and inactive calls. Calls come from the whole dose curve; as a rule, active = well fitted inhibition curve with a large enough effect in the signal ratio in the repeat runs (not every such curve was filed as active); inconclusive = weak or mixed curves, or effect the other way; inactive = no such curve, though single readings can be large or run the other way; the % refers to the signal ratio.
Answer with one of the outcomes 1 (active), 0 (inactive)

(Q) Hi team, can someone confirm the assay call for Nc1ccc(O)cc1 ?
(A) 0

(Q) Recorded test outcome, item CC(=O)Nc1ccc(C(=O)CCl)cc1
(A) 0

(Q) Assay result, entry COc1nc(C)nc(Cl)c1NC1=NCCN1 — outcome?
(A) 0

(Q) Assay result, entry O=C(O)c1cc(Cl)cc(Cl)c1 — outcome?
(A) 0

(Q) // outcome(item) with item = O=c1n(CC2CO2)c(=O)n(CC2CO2)c(=O)n1CC1CO1 (stereo not given)
(A) 0

(Q) Hi, sorry to bother you, what did the test record for BrC1CCC(Br)C(Br)CCC(Br)C(Br)CCC1Br (stereo not given) ?
(A) 0
